Please respond with reported folding stability dG for every item in the list.
B1: EEHEE_rd4_0763 (parent)
chain: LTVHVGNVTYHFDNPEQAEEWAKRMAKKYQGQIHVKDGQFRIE

variants of: B1; assay: folding stability dG (cDNA display proteolysis); higher = more stable; details: PBS, room temperature
Numbers only, in kcal/mol.

A selection of reference data follows.
G31D; 0.903
V8F; 1.8
E19C; 2.53
V5R; 0.733
K27Q; 1.66
K27Y; 1.51
Y10F; 1.54
T9N; 0.836

For every listed record, write down its folding stability dG.
1. V5D
2. Q32R
3. I33N
4. Y29V
5. W21T

0.649
1.64
0.836
1.27
0.307

Dear colleague, could you send me folding stability dG for each of the items below? Thanks.
1. K23Y
2. Y10P

1: 1.62; 2: 0.292

Each of the following entries comes with a recorded value; kindly state folding stability dG for each.
1. L1G
2. R24P
3. K27G
4. R41S

1.77
-0.675
1.13
1.57

Parameter requested: folding stability dG. Apply to each item below.
1. K23I
2. A18F
3. G6P
4. I42A
5. H11Q
6. V35Q

1.76
1.46
0.447
1.02
1.45
1.2

Here are 2 variants. What values of folding stability dG were reported for them?
1. V5M
2. G38H

1.48
1.02

Batch request: folding stability dG for each of the following variants.
1. Q32S
2. R41C
3. I42S

[1.62, 2.95, 1.06]

Please look at the items below and tell me folding stability dG for each one, in order.
1. T9C
2. F12G

1. 2.01
2. -0.264

For every item in the list below, what is its measured folding stability dG?
1. A18H
2. E43T
3. E20W
4. A26F
5. K27A
6. G6S
7. V8K
8. K36T

1: 0.576; 2: 1.66; 3: 1.92; 4: 1.3; 5: 1.83; 6: 1.11; 7: 1.74; 8: 1.73
